Sourced from PubChem BioAssay (NCI)

Reported GI50 is given for each of the following molecules.
# Test system: SK-MEL-28 melanoma
# protocol summary: NCI tumour cell line growth inhibition, 48 h

molecule	GI50
Cc1ccc(NC2=C(Cl)C(=O)N(Cc3ccccc3)C2=O)cc1Cl	12.9 µM
COc1cc(C2CC(c3ccccc3)=NN2C(C)=O)cc(OC)c1OC (stereo not drawn)	6.48 µM
COc1nc(N)nc2c1ncn2[C@@H]1O[C@H](CO)[C@@H](O)[C@@H]1O	> 100 µM
O=C1CC[C@H](c2ccc(O)c3c2C(=O)[C@@H]2O[C@@H]2C3=O)c2cccc(O)c21	1.83 µM
Cc1cc2cc3cc(C)c(N)cc3[n+](C)c2cc1N	1.98 µM
C=CC[C@@H]1/C=C(\C)C[C@H](C)C[C@H](OC)[C@H]2O[C@@](O)(C(=O)C(=O)N3CCCC[C@H]3C(=O)O[C@H](/C(C)=C/C3CC[C@@H](O)[C@H](OC)C3)[C@H](C)[C@@H](O)CC1=O)[C@H](C)C[C@@H]2OC (stereo partly drawn)	15.2 µM
O=C(NC1CCCCC1)NS(=O)(=O)c1ccc(-n2nc3c(c2-c2ccc(Cl)cc2)Cc2ccccc2-3)cc1	21.9 µM
C=C(C)[C@@H]1CC[C@]2(C(=O)O)CC[C@]3(C)[C@H](CC[C@@H]4[C@@]5(C)C/C(=C/c6ccc(OC)cc6)C(=O)C(C)(C)[C@@H]5CC[C@]43C)[C@@H]12	1.91 µM

====

# Tested on: UACC-62 melanoma
# protocol summary: NCI tumour cell line growth inhibition, 48 h
# TGI >= 20 µM gives True, anything below gives False

compound	discrete label
COC(=O)c1cnn2c1ccc1ccccc12	True
O=C(NC1CCCCC1)NS(=O)(=O)c1ccc(-n2nc3c(c2-c2ccc(Cl)cc2)Cc2ccccc2-3)cc1	True
C=C(C)[C@@H]1CC[C@]2(C(=O)O)CC[C@]3(C)[C@H](CC[C@@H]4[C@@]5(C)C/C(=C/c6ccc(OC)cc6)C(=O)C(C)(C)[C@@H]5CC[C@]43C)[C@@H]12	False
Cc1sc(NC2=NC(=O)/C(=C\c3ccccc3)S2)nc1-c1nc(NC2=NC(=O)/C(=C\c3ccccc3)S2)sc1C	True
COC(=O)Cc1c(/C=C/C(C)(C)n2cnc(CCN3C(=O)CCC3=O)c2)[nH]c2ccccc12	True
Cc1cc(C)c2nc3nc(C)cc(C)c3c(N)c2c1	False
C=CC[C@@H]1/C=C(\C)C[C@H](C)C[C@H](OC)[C@H]2O[C@@](O)(C(=O)C(=O)N3CCCC[C@H]3C(=O)O[C@H](/C(C)=C/C3CC[C@@H](O)[C@H](OC)C3)[C@H](C)[C@@H](O)CC1=O)[C@H](C)C[C@@H]2OC (stereo partly drawn)	True
CC(=O)O[C@H]1CC[C@@]2(C)C(=C[C@H](c3ccc(O)cc3)[C@H]3[C@@H]4CC[C@H](OC(C)=O)[C@@]4(C)CC[C@@H]32)C1	True

====

# Tested on: T-47D breast
# protocol summary: NCI tumour cell line growth inhibition, 48 h
recorded metric: TGI (µM)

> print(dat)
                                   compound  assay.system  recorded.metric  inequality.sign  meas.value
1  CC1(C)CCCCCCC2CC2CCCCCC(C)(C)C1=O (stereo not given)  T-47D breast              TGI                >         100
2  C[C@]12CC[C@H]3[C@@H](CCC4=CC(=O)CC[C@@]43C)[C@@H]1CC[C@@H]2C(=O)Nc1ccc([N+](=O)[O-])c(C(F)(F)F)c1  T-47D breast              TGI                =        37.8
3  COc1ccc2c(c1)CCN1CCCc3ccc(OC)cc3C21 (stereo not given)  T-47D breast              TGI                >         100
4          CO/N=C(\C(=O)Nc1cncs1)c1csc(N)n1  T-47D breast              TGI                >          10
5  C=Cc1cc(OC)c2c(c1)c(=O)oc1c2cc(OC)c2c(O)ccc(C3OC(C)C(O)C(C)(O)C3O)c21 (stereo not given)  T-47D breast              TGI                =     0.00439
